# Test system: K562
# ASSAY_PROTOCOL: Cytotoxicity against human K562 cells after 72 hrs by MTT assay
# Format: functional, cell-based
# CONDITION_PARAMETERS: K562, 72 h
pIC50: −log10 of the molar value.
VALUE_TYPE: pIC50

> print(dat)
                   record.smiles  tested.on  value.type  reported.value
1  COc1cc(/C=N/O)nc(-c2ccccn2)c1       K562       pIC50          < 4.30

* * *

# Tested on: HL-60
# ASSAY_PROTOCOL: Cytotoxicity against human HL60 cells after 72 hrs by MTT assay
# Type: functional, cell-based
# CONDITION_PARAMETERS: HL-60, 72 h
pIC50: −log10 of the molar value.
VALUE_TYPE: pIC50

> print(dat)
                                   compound  tested.on  value.type  reported.value
1  COc1cc(/C=N/O)nc(-c2ccccn2)c1 [CAERULOMYCIN A]      HL-60       pIC50            6.15
